Reported IC50 values follow for various compounds
target-entity: G12D-mutant human KRAS (amino acid residues 1-188) (Homo sapiens, UniProt P01116, G12D)
Construct: G12D or G12C-mutant human KRAS (amino acid residues 1-188) with FLAG tag; made in house; host or cells: E. coli
Sequence (P01116 1-188 isoform P01116-2 G12D): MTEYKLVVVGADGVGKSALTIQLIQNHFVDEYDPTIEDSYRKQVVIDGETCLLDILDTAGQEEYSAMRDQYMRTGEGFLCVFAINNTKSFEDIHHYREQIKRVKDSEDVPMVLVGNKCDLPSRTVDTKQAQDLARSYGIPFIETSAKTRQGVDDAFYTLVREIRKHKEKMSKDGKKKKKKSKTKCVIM
procedure-details: KRAS Binding Disruption Assay (AlphaScreen; biotinylated KRpep-2d analogue or RAF1-RBD), G12D
test-conditions: KRAS G12D; geometric mean; read-out: KRAS GMean IC50 (uM) MUTATION: G12D

Illustrative cases are given below, each with its answer.
{"compound": "NC(=O)COc1nc(N2C[C@H]3CC[C@@H](C2)N3)c2ccc(-c3cc(O)cc4ccccc34)c(F)c2n1", "IC50": "0.0001 to 10 µM"}
{"compound": "Oc1cc(-c2ccc3c(C4C[C@H]5CC[C@@H](C4)N5)nc(OCC45CCCN4CCC5)nc3c2)c2ccccc2c1 (stereo partly drawn)", "IC50": "0.0001 to 10 µM"}
{"compound": "Oc1cc(-c2ccc3c(N4[C@@H]5CC[C@H]4CNC5)nc(Cc4ccncc4)nc3c2)c2ccccc2c1", "IC50": "0.0001 to 10 µM"}

Bench note: what IC50 did `CN(C)CCOc1nc(N2C[C@H]3CC[C@@H](C2)N3)c2ccc(-c3cc(O)cc4ccccc34)c(F)c2n1` show?
0.0001 to 10 µM

Bench note: what IC50 did `CN1CCC[C@H]1COc1nc(N2[C@@H]3CC[C@H]2CN(C(=O)c2c[nH]cn2)C3)c2ccc(-c3cc(O)cc4ccccc34)cc2n1` show?
10 to 100 µM

Bench note: what IC50 did CN1CCC[C@H]1COc1nc(N2CCC3CCC(C2)N3)c2cc(Cl)c(-c3cc(O)cc4ccccc34)c(F)c2n1 (stereo partly drawn) show?
0.0001 to 10 µM

Bench note: what IC50 did `CN1CCC[C@H]1COc1nc(N2C[C@H]3CC[C@@H](C2)N3C(=O)CN2CCCC2)c2ccc(-c3cc(O)cc4ccccc34)cc2n1` show?
0.0001 to 10 µM

Bench note: what IC50 did `CN1CCC[C@H]1COc1nc(N2C[C@H]3CC[C@@H](C2)N3)c2cc(F)c(-c3c[nH]c4ccccc34)c(F)c2n1` show?
0.0001 to 10 µM

Bench note: what IC50 did `CN1CCC[C@H]1COc1nc(N2C[C@H]3CC[C@@H](C2)N3)c2ccc(-c3c[nH]c4ccccc34)cc2n1` show?
10 to 100 µM

Bench note: what IC50 did Cc1cccc2c1N(c1ncc3c(N4C[C@H]5CC[C@@H](C4)N5)nc(OC[C@@H]4CCCN4C)nc3c1F)CC(O)C2 (stereo partly drawn) show?
0.0001 to 10 µM

Bench note: what IC50 did CN1CCC[C@H]1COc1nc(N2[C@@H]3CC[C@H]2CN(C(=O)CC2CCCC2O)C3)c2ccc(-c3cc(O)cc4ccccc34)cc2n1 (stereo partly drawn) show?
10 to 100 µM
